# experimental details: Human HepG2 cell viability assay in 384 well format
# Format: toxicity, cell-based
# Set-up: dose 125 nL, time 70.5 hour; concentration not given beside the values
# measurement setup: HepG2 cells, read-out: Inhibition
Listing: cytotoxicity at 70.5 h of selected molecules
Provide the reading as a plain figure in %.

Incoming: Given the molecule CN(C)c1nccc(NCc2cc(-c3cccs3)n[nH]2)n1 , what is its reported cytotoxicity at 70.5 h?
Outgoing: 4.36

Incoming: Now consider O=C(Cc1cccc(O)c1)NCCCNC(=O)c1cccc(F)c1 and answer again.
Outgoing: -5.97

Incoming: How about this molecule: O=C(c1cn2ccsc2n1)N1CCOCC(O)(CN2CCCC2)C1 (configuration not stated)
Outgoing: 1.73

Incoming: Same again, this time with OCCNc1nccc(-c2cn3nccc3nc2C2CCCCC2)n1
Outgoing: -8.52

Incoming: Input Cc1ccc(N2CCCN(C(=O)c3c(C)oc(C)c3C)CC2)nn1
Outgoing: -4.32

Incoming: // same read-out, input: CC1CN(C)CCN1C(=O)c1ccc(-n2cnnc2)cc1 (configuration not stated)
Outgoing: -1.59

Incoming: Please answer likewise for Cc1c[nH]c(C2COCCN2C(=O)CCc2c(C)n[nH]c2C)n1 (configuration not stated)
Outgoing: -9.97

----------
Reported cytotoxicity at 70.5 h values for the following compounds.
# experimental details: Human HepG2 cell viability assay in 384 well format
# Format: toxicity, cell-based
# Parameters: dose 125 nL, time 70.5 hour; concentration not given beside the values
# measurement setup: HepG2 cells, read-out: Inhibition
Entry rule: numbers only, all in %.

Recorded results for 6 compounds are shown here.
Cc1cc(N(C)C)nc(N(C)Cc2csc(C)n2)n1 :: -7.95
O=S(=O)(NCc1ccc(S(=O)(=O)N2CCCC2)s1)c1ccc(Cl)c(Cl)c1 :: -22.7
Cc1nc(C)c(-c2nnc(SCC(=O)O)n2C(C)c2ccccc2)o1 (stereo unspecified) :: -2.71
Cc1ccc(C2(O)CCN(C(=O)CCn3ccc(=O)[nH]c3=O)CC2)nc1 :: -10.1
O=C(CCn1cccn1)NCCOc1ccc2c(c1)OCO2 :: -6.03
CSc1nccc(-c2cccc(-c3ccn(CC4COCCO4)n3)c2)n1 (stereo unspecified) :: -13.8

Incoming: I am curious: what cytotoxicity at 70.5 h value has been reported for CC(C)Cc1nc(C[S+]([O-])CC(=O)NCc2ccccc2)no1 (stereo unspecified) ?
Outgoing: -5.17

Incoming: Also need O=C(O)C1(Oc2ccc3ccccc3c2)CCN(c2ccncc2)CC1 , thanks.
Outgoing: 21.4

Incoming: Again, but for CC(=O)N1CC[C@H]2C(=O)N(c3ccsc3)CCO[C@H]2C1
Outgoing: -2.46

Incoming: // same read-out, input: O=C(Nc1cccnc1-n1cc(Cl)cn1)C1CCCC1
Outgoing: -29.5

Incoming: Now give it for Cc1csc(CNC(=O)NC2CCCc3c2cnn3CCO)n1 (stereo unspecified) too.
Outgoing: -9.89

----------
Known cytotoxicity at 70.5 h of a selection of molecules
# experimental details: Human HepG2 cell viability assay in 384 well format
# Type: toxicity, cell-based
# Parameters: dose 125 nL, time 70.5 hour; concentration not given beside the values
# measurement setup: HepG2 cells, read-out: Inhibition
Give just the number in %; leave the unit off.

Here are 8 molecules together with their reported answers.
CCOc1ccc(CN2C(=O)CC(C)(C)C2=O)nc1 :: 2.3
CCCn1ccnc1-c1nccn1CCC(N)=O :: -7.75
CC(C)Cc1cc(CC2(NCc3ccco3)COC2)no1 :: -3.13
CCOc1c(F)cccc1C(=O)N(C)CCc1ccccn1 :: 36.5
CCS(=O)(=O)c1ccccc1C(=O)NCC1Cc2ccccc2O1 (configuration not stated) :: -3.88
CN1CCN([C@@H]2CN(C(=O)c3ccsc3)[C@@H]3CCCO[C@H]23)CC1 :: -2.84
NC(=O)C1CCN(C(=O)NCc2cccnc2OC2CCCC2)C1 (configuration not stated) :: -5.81
Cc1nc(N2CCOCC2)sc1C(=O)NCC(C)(C)N1CCCCC1 :: -2

Below: the item to evaluate.
Incoming: Could you tell me which cytotoxicity at 70.5 h is on file for CCc1nc(NC(=O)Cc2csc(-c3nnc[nH]3)n2)sc1C ?
Outgoing: -11.9

----------
Each record here notes measured cytotoxicity at 70.5 h.
# experimental details: Human HepG2 cell viability assay in 384 well format
# Type: toxicity, cell-based
# Design: dose 125 nL, time 70.5 hour; concentration not given beside the values
# measurement setup: HepG2 cells, read-out: Inhibition
Only the number, expressed in %, is required.

Consider the following illustrative entries.
COc1ccc(Nc2nc(N)c(C(C)=O)s2)cc1OC :: -12.7
COc1cccc(CNCc2ccc(NC(=O)NC(C)C)cc2)c1 :: 7.1
Cc1noc(C)c1CN1C[C@@H]2COC[C@]2(COc2ccc(C#N)cn2)C1 :: -2.55
CC1(C)Cc2c(cnn2-c2cccc(F)c2)C(NC2CCSCC2)C1 (configuration not stated) :: 9.46
Cc1nc(N2CCCC2)ncc1-c1cc(O)nc(N2CCN(C)CC2)n1 :: -2.96

Incoming: Which cytotoxicity at 70.5 h reading was recorded for the compound CCC(=O)c1ccc(Br)cc1NN1c2cc(Br)ccc2C(=O)C1(C)OC (configuration not stated) ?
Outgoing: 13.3

Incoming: Now consider Cn1nc(CNC(=O)C2CC2)cc1C1CC1 and answer again.
Outgoing: 8.22

Incoming: What do we get for COCc1cc(N2CCN(Cc3ccncc3)CC2)n2nccc2n1 ?
Outgoing: -1.74

Incoming: Cc1nc(-c2nnc[nH]2)sc1C(=O)N(Cc1cccnc1)C1CC1 , same question.
Outgoing: 9.64

Incoming: Please give the result for CN(CCO)Cc1nnc(C2CCN(C3CCCCC3)CC2)n1C too.
Outgoing: -14.7

----------
# experimental details: Human HepG2 cell viability assay in 384 well format
# Assay type: toxicity, cell-based
# Parameters: dose 125 nL, time 70.5 hour; concentration not given beside the values
# measurement setup: HepG2 cells, read-out: Inhibition
Items are presented alongside their recorded cytotoxicity at 70.5 h.
Number in %, nothing else.

O=C(NCCSc1ccccc1)[C@H]1CNC[C@H](C(=O)N2CCOCC2)C1 :: -6.2
CC(Cn1cncn1)NC(=O)NCc1csc(N(C)C)n1 (stereo unspecified) :: -8.98
CCN(CC)C(CNC(=O)CCc1nc(C(C)C)no1)c1ccco1 (stereo unspecified) :: -2.56

Incoming: Value lookup for cytotoxicity at 70.5 h; key = COCC(=O)NC[C@]12COC[C@H]1CN(Cc1ccc3c(c1)OCO3)C2
Outgoing: -0.957

Incoming: Another: CN1CCN(c2ccc(NCc3ccc(OC(F)(F)F)cc3)cn2)CC1
Outgoing: -11.2

Incoming: Follow-up item: N#Cc1ccc(NC2CCN(Cc3ccccn3)CC2)c(F)c1
Outgoing: -9.28

Incoming: Follow-up item: CN(C)C[C@H]1CC[C@@H](Cc2ccc3c(cnn3C)c2)O1
Outgoing: -11.9

Incoming: What do we get for Cc1nn(C)c2nc(C(C)C)cc(C(=O)Nc3n[nH]c(C4CC4)n3)c12 ?
Outgoing: 27

Incoming: Consider next the molecule COc1ccc(C(=O)NS(=O)(=O)c2cc(Cl)sc2Cl)cc1OC(F)F in the same way.
Outgoing: -3.93

Incoming: Param item: COCc1cn(C[C@H]2CC3CCN2C[C@@H]3C(=O)Nc2ccccc2)nn1 (stereo partly specified)
Outgoing: -6.64

Incoming: Now try CCCSCC(=O)N1C[C@H]2CC[C@@H]1CN(c1ncccn1)C2 .
Outgoing: -14.1

----------
# experimental details: Human HepG2 cell viability assay in 384 well format
# Format: toxicity, cell-based
# Parameters: dose 125 nL, time 70.5 hour; concentration not given beside the values
# measurement setup: HepG2 cells, read-out: Inhibition
property measured: cytotoxicity at 70.5 h (%)
Numeric only. Scale: %

CN(C)C(=O)N1CCN(c2ccc3ccc(C(=O)NC4CC4)cn23)CC1 :: 11.8
CCn1ccnc1CN1CCN(C(C)C(=O)NCc2ccco2)CC1 (configuration not stated) :: 16.6
COCCCNC(=O)NCc1ccc(C)cc1 :: 8.59
CC(=O)N1CCC(c2ncc(C(=O)Nc3ccccc3)c(C)n2)CC1 :: -4.36
CN(C)C(=O)CO[C@@H]1CC[C@H]2[C@H]1OCCN2c1ncc(F)cn1 :: -6.35

Incoming: Need cytotoxicity at 70.5 h of CCCc1cc(NCc2noc(COC)n2)n2nccc2n1 , thanks.
Outgoing: -4.21

Incoming: Similarly, c1cncc(CNCCc2cccs2)c1 ?
Outgoing: -9.29

Incoming: Repeat for the following compound: CCN(Cc1nc2c(cnn2C)c(=O)[nH]1)c1cccc(C)c1C
Outgoing: -0.49

Incoming: Likewise for Cc1noc(C(C)C)c1C(=O)NS(=O)(=O)c1ccc2c(c1)OCCCO2 ?
Outgoing: -9.35

Incoming: Lookup CN(Cc1ccc(Br)c2cccnc12)S(C)(=O)=O
Outgoing: 12.8

Incoming: Same again, this time with COc1cccc(CNC2CCc3ccc(C)cc32)n1 (configuration not stated)
Outgoing: -9.15

Incoming: Subsequent entry: CC1(c2nccs2)CCN(C(=O)CCN2CCOCC2)CC1
Outgoing: -1.94
